System: HeLa
Experiment: Cytotoxicity against human HeLa cells after 48 hrs by MTT assay
Type: functional, cell-based
experimental.endpoint: IC50 (µM)
Answers are plain numbers, in µM.

Completed entries (count: 6):
- chemical.string: "COc1cc2cc(Cn3cc(CN4C(=O)c5cccc6cccc(c56)C4=O)nn3)c3cc(OC)c(OC)cc3c2cc1OC"
  experimental.endpoint: "IC50"
  observed.result: 2.9
- chemical.string: "COc1cc2cc(Cn3cc(COc4ccc(Br)cc4)nn3)c3cc(OC)c(OC)cc3c2cc1OC"
  experimental.endpoint: "IC50"
  observed.result: 3.8
- chemical.string: "COc1cc2cc(Cn3cc(COc4c(Br)cccc4Br)nn3)c3cc(OC)c(OC)cc3c2cc1OC"
  experimental.endpoint: "IC50"
  observed.result: 5.15
- chemical.string: "COc1cc2cc(Cn3cc(COc4ccccc4OC)nn3)c3cc(OC)c(OC)cc3c2cc1OC"
  experimental.endpoint: "IC50"
  observed.result: 11.2
- chemical.string: "COc1cc2cc(Cn3cc(CO)nn3)c3cc(OC)c(OC)cc3c2cc1OC"
  experimental.endpoint: "IC50"
  observed.result: 18.3
- chemical.string: "O=c1[nH]cc(F)c(=O)[nH]1"
  experimental.endpoint: "IC50"
  observed.result: 1.86

Batch of 6 compounds: report IC50 for each.
1. COc1cc2cc(Cn3cc(COc4ccc(OCc5ccccc5)cc4)nn3)c3cc(OC)c(OC)cc3c2cc1OC
2. COc1cc2cc(Cn3cc(CN4C(=O)c5ccc(C)cc5C4=O)nn3)c3cc(OC)c(OC)cc3c2cc1OC
3. C=CCc1ccc(OCc2cn(Cc3cc4cc(OC)c(OC)cc4c4cc(OC)c(OC)cc34)nn2)c(OC)c1
4. COc1cc2cc(Cn3cc(CN4C(=O)c5ccccc5C4=O)nn3)c3cc(OC)c(OC)cc3c2cc1OC
5. COc1cc2cc(Cn3cc(CCO)nn3)c3cc(OC)c(OC)cc3c2cc1OC
6. COc1cc2cc(Cn3cc(COc4c(C)cc(C)cc4C)nn3)c3cc(OC)c(OC)cc3c2cc1OC

1: 21.1; 2: 2.7; 3: 7.12; 4: 12.6; 5: 17.2; 6: 17.6
